Measured values drawn from ChEMBL document CHEMBL4715760 for this set.

# assayed-system: Mitogen-activated protein kinase 8 (Homo sapiens) (UniProt P45983)
# Sequence (P45983 whole entry): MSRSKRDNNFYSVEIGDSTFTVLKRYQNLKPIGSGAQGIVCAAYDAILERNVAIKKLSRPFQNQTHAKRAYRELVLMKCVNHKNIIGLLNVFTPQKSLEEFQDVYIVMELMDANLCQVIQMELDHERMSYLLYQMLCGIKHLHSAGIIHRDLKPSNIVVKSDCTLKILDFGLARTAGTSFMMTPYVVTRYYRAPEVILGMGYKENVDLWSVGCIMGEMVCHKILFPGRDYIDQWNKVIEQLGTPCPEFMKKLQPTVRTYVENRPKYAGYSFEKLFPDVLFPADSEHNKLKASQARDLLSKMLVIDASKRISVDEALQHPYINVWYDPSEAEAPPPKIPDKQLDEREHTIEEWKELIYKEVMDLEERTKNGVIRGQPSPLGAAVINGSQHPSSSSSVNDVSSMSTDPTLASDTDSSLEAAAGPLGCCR
# test-summary: Inhibition of recombinant human His tagged human MAPK8 expressed in baculovirus expression system at 500 nM using Ser/Thr 04 as substrate incubated for 1 hr in presence of 100 uM ATP by Z'-LYTE assay relative to control
measurement-kind: inhibition (%)
Your answer should be a plain number; it is taken to be in %.

>>> reported_value("OC[C@@H](Nc1ncnc2[nH]c(-c3ccccc3)cc12)c1ccccc1")
0
>>> reported_value("C#Cc1cccc(Nc2ncnc3cc(OCCOC)c(OCCOC)cc23)c1 [ERLOTINIB]")
32
>>> reported_value("COc1ccccc1-c1cc2c(N[C@H](CO)c3ccccc3)ncnc2[nH]1")
7
>>> reported_value("CN(C)CCNCc1ccc(-c2cc3c(N[C@H](CO)c4ccccc4)ncnc3[nH]2)cc1F")
19
>>> reported_value("OCC[C@@H](Nc1ncnc2[nH]c(-c3ccccc3)cc12)c1ccccc1")
27

// below: inhibition requested for another molecule
The molecule listed as `CCOc1ccccc1-c1cc2c(N[C@H](CO)c3ccccc3)ncnc2[nH]1` has a reported inhibition of 17

====

# assayed-system: Aurora kinase A (Homo sapiens) (UniProt O14965)
# Sequence (whole entry): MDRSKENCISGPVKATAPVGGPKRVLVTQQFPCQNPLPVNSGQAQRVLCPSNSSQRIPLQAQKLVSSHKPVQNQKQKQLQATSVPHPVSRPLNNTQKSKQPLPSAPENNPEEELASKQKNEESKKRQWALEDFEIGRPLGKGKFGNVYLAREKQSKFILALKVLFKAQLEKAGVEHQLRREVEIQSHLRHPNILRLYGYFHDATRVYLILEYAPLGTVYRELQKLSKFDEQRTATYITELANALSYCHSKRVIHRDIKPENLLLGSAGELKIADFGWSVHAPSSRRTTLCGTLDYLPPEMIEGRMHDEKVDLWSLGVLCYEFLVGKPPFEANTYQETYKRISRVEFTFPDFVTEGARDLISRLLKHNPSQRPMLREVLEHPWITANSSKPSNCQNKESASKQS
# test-summary: Inhibition of recombinant human full length His-tagged AURKA expressed in baculovirus expression system at 500 nM using Ser/Thr 01 as substrate incubated for 1 hr in presence of ATP at its Km concentration by Z'-LYTE assay relative to control
measurement-kind: inhibition (%)
Express your answer in %, writing the number without its unit.

Measured inhibition, `COc1ccccc1-c1cc2c(N[C@H](CO)c3ccccc3)ncnc2[nH]1` : 9

Recorded inhibition (molecule `OC[C@@H](Nc1ncnc2[nH]c(-c3ccccc3)cc12)c1ccccc1` ): 19

Entry `CCOc1ccccc1-c1cc2c(N[C@H](CO)c3ccccc3)ncnc2[nH]1` — recorded inhibition = -2

// inhibition value for `C#Cc1cccc(Nc2ncnc3cc(OCCOC)c(OCCOC)cc23)c1` : 20

Reported inhibition ( `CN(C)CCNCc1ccc(-c2cc3c(N[C@H](CO)c4ccccc4)ncnc3[nH]2)cc1F` ) = 3

The molecule identified as `OCC[C@@H](Nc1ncnc2[nH]c(-c3ccccc3)cc12)c1ccccc1` registered its inhibition at -3

====

# key: entry, value: inhibition
# assayed-system: Tyrosine-protein kinase Yes (Homo sapiens) (UniProt P07947)
# Sequence (P07947 2-543 limits assumed): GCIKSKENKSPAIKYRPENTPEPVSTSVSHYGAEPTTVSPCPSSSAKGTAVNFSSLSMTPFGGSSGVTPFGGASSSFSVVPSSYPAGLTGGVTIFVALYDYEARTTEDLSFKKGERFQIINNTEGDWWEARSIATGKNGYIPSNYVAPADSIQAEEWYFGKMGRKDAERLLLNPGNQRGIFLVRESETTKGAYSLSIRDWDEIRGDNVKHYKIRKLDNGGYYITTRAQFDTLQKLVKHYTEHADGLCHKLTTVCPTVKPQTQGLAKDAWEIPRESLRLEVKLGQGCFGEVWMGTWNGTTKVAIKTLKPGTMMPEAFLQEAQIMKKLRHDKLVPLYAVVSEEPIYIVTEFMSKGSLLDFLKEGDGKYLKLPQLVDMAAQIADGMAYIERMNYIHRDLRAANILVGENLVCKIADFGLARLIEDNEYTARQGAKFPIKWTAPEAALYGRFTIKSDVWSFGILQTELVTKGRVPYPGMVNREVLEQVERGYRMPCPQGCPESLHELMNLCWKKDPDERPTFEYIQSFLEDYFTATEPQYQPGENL
# test-summary: Inhibition of full length recombinant GST-tagged human YES1 expressed in baculovirus expression system at 500 nM using Tyr 02 as substrate incubated for 1 hr in presence of ATP at its Km concentration by Z'-LYTE assay relative to control
Record the value in %, omitting the unit from your answer.

>>> reported_value("OC[C@@H](Nc1ncnc2[nH]c(-c3ccccc3)cc12)c1ccccc1")
65

Shifting focus to the compound that follows.
The recorded inhibition for entry `CCOc1ccccc1-c1cc2c(N[C@H](CO)c3ccccc3)ncnc2[nH]1` equals 56
